Target: pooled human IgG (human IgG1, 2, 3 and 4)
Kindly supply the reported Enzyme Activity Endpoint Assay (purified): IgG values for the records listed here.
Answers are plain numbers, in ng/µL.

Provide one value: measured Enzyme Activity Endpoint Assay (purified): IgG of PRT-660 (protein) MQITSVWTKGVTPLTPEQFRYNNEDVIHAPYLAHQGWYDITKAFDGKDNLLCGAATAGNMLHWWFDQNKTEIEAYLSKHPEKQKIIFNNQELFDLRKAINTKDDQKESALFNYFRKKAFPNLSARQLGVMPDLVLDMFINGYYLNVFKTQSTDVNRPYQDKDKRGGIFDAVFTRGDQTTLLTARHDLKNKGLNDISTIIKQELTEGRALALSHTYANVSISHVINLWGADFNAEGNLEAIYVTDSDANASIGMKKYFVGINAHGHVAISAKKIEGENIGAQVLGLFTLSSGKDIWQKLSLEHHHHHH
105

Now examine the next entry.
Provide one value: measured Enzyme Activity Endpoint Assay (purified): IgG of PRT-449 (protein) MVTSVWTKGVTPPTDFRKIVDGNIAYYHAPYKAGQGWYDITKTFNGKDDLLCGAATAGNMLHWWFDQNKDQIEAYLKEHPEKQKINFNGEQMFDVKEAIDTKDDQTNSKLFEYFKEKAFPYLSTKHLGVFPDHVLDMFINGYRLSLTNHGPTPVKEGSKDPRGGIFDAVFTRGDQSKLLTSRHDFKEKTLKEISDLIKQELTEGKALALSHTYANVRINHVINLWGADFDSNGNLEAIYVTDSDSNASIGMKKYFVGVNSAGKVAISAKEIEDDNIGAQVLGLFTLSTGQDIWNQTNLEHHHHHH
0
